Biological target: glucosylceramide synthase (Homo sapiens, UniProt Q16739)
Construct: made in house; host or cells: Expi293F cells (transient expression, pcDNA3.3-TOPO vector); microsome fraction used as enzyme source
Sequence (Q16739 whole entry): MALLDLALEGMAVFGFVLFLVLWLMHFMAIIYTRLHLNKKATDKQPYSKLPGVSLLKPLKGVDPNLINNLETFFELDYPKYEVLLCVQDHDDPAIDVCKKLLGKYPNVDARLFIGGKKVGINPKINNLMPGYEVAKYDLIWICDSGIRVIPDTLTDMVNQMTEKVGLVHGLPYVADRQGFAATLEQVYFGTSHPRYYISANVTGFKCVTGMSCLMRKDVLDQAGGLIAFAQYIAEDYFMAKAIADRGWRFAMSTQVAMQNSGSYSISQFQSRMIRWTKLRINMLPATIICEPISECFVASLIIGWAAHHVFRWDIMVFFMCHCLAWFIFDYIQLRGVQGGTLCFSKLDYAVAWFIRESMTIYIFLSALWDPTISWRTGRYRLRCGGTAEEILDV
Test: Glucosylceramide synthase (GCS) enzyme assay, microsome fraction, C8 glucosylceramide quantified by Rapidfire MS/MS
Format: biochemical
Conditions: test compound 10 μM; 1.7 μM UDP-glucose, 3 μM C8 ceramide; room temperature 60 min; read-out: GCS enzyme inhibitory rate at 10 μM (%) (% of control)
measurementType: inhibition at 10 µM

Enquiry: State its inhibition at 10 µM for this compound: O=C1c2ccnc(-c3ccc(F)cc3OCC(F)(F)F)c2CN1c1ccc(C2(O)COC2)cn1
Return: 91%

Enquiry: State its inhibition at 10 µM for this compound: CC(C)(O)c1ccc(N2Cc3c(ccnc3-c3ccc(F)cc3OCC(F)F)C2=O)cc1
Return: 98%

Enquiry: State its inhibition at 10 µM for this compound: O=C1c2cnn(-c3ccc(F)cc3OCC(F)(F)F)c2CN1c1ccc(F)cc1
Return: 75%

More entries:
Enquiry: State its inhibition at 10 µM for this compound: O=C1c2ccnc(-c3ccccc3OCC(F)(F)F)c2CN1c1ccc(C(F)(F)F)cn1
Return: 99%

Enquiry: State its inhibition at 10 µM for this compound: O=C1c2ccnc(-c3ccccc3OCC(F)(F)F)c2CN1c1ccc(C2(O)CCOCC2)cc1
Return: 100%

Enquiry: State its inhibition at 10 µM for this compound: CC(O)(c1ccc(N2Cc3c(ccnc3-c3ccc(F)cc3OCC(F)(F)F)C2=O)cc1)C(F)F (racemic) [Example 296]
Return: 100%

Enquiry: State its inhibition at 10 µM for this compound: CC(O)(c1ccc(N2Cc3c(ccnc3-c3ccccc3OCC(F)(F)F)C2=O)cc1)C(F)F (single isomer, unassigned) [Example 315]
Return: 100%

Enquiry: State its inhibition at 10 µM for this compound: O=C1c2ccnc(-c3ccccc3OCC(F)(F)F)c2CN1c1ccc(OC(F)F)cn1
Return: 100%

Enquiry: State its inhibition at 10 µM for this compound: CC(C)(O)COc1cnc(N2Cc3c(ccnc3-c3ccccc3OCC(F)(F)F)C2=O)cn1
Return: 98%

Enquiry: State its inhibition at 10 µM for this compound: Cc1ccc(N2Cc3c(ccnc3-c3ccc(F)cc3OCC(F)(F)F)C2=O)cn1
Return: 96%

Enquiry: State its inhibition at 10 µM for this compound: COCc1cc2c(c(-c3ccccc3OCC(F)(F)F)n1)CN(c1ccc(C(C)(C)O)cc1)C2=O
Return: 100%

Enquiry: State its inhibition at 10 µM for this compound: COc1cc(C(=O)N2CCC2)ccc1-c1nccc2c1CN(c1ccc(F)cc1)C2=O
Return: 61%

Enquiry: State its inhibition at 10 µM for this compound: Cn1nc(N2Cc3c(ccnc3-c3ccc(F)cc3OCC(F)(F)F)C2=O)cc1C#N
Return: 52%

---

Target: glucosylceramide synthase (Homo sapiens, UniProt Q16739)
Construct: made in house; host or cells: Expi293F cells (transient expression, pcDNA3.3-TOPO vector); microsome fraction used as enzyme source
Test: Glucosylceramide synthase (GCS) enzyme assay, microsome fraction, C8 glucosylceramide quantified by Rapidfire MS/MS
Type: biochemical
Conditions: test compound 10 μM; 1.7 μM UDP-glucose, 3 μM C8 ceramide; room temperature 60 min; read-out: GCS enzyme inhibitory rate at 10 μM (%) (% of control)
measurementType: inhibition at 10 µM (%)
Quick note: give the figure in %, leave out the unit.

Here is how some compounds turned out for inhibition at 10 µM.
Enquiry: State its inhibition at 10 µM for this compound: COc1ccccc1-c1nccc2c1CN(c1ccc(F)cc1)C2=O [Example 1]
Return: 78

Enquiry: State its inhibition at 10 µM for this compound: COc1ccc(N2Cc3c(ccnc3-c3ccccc3OC)C2=O)cc1 [Example 24]
Return: 89

Enquiry: State its inhibition at 10 µM for this compound: Cc1cc2c(c(-c3ccccc3OCC(F)(F)F)n1)CN(c1ccc(C(F)(F)C(C)(C)O)cc1)C2=O [Example 342]
Return: 100

Enquiry: State its inhibition at 10 µM for this compound: O=C1c2ccnc(-c3ccc(F)cc3OCC(F)(F)F)c2CN1c1cnn(CC2(F)CC2)c1 [Example 213]
Return: 94

Enquiry: State its inhibition at 10 µM for this compound: CC(C)(O)c1ccc(N2Cc3c(ccnc3-c3ccc(F)cc3OCC(F)(F)F)C2=O)cc1F [Example 212]
Return: 99

More entries:
Enquiry: State its inhibition at 10 µM for this compound: CC(C)(C#N)c1ccc(N2Cc3c(ccnc3-c3ccc(F)cc3OCC(F)(F)F)C2=O)cc1 [Example 269]
Return: 99

Enquiry: State its inhibition at 10 µM for this compound: CC(C)(O)c1ccc(N2Cc3c(cc(C4CCOC4)nc3-c3ccccc3OCC(F)F)C2=O)cc1 (racemic) [Example 390]
Return: 77

Enquiry: State its inhibition at 10 µM for this compound: O=C1c2ccnc(-c3ccc(F)cc3OCC(F)F)c2CN1c1ccc(F)cc1 [Example 16]
Return: 73

Enquiry: State its inhibition at 10 µM for this compound: CS(=O)(=O)c1ccc(N2Cc3ccnc(-c4ccc(F)cc4OCC(F)(F)F)c3C2)cc1 [Example 140]
Return: 86

Enquiry: State its inhibition at 10 µM for this compound: O=C1c2ccnc(-c3ccc(F)cc3OCC(F)(F)F)c2CN1c1ccc(O[C@H]2CCOC2)cc1 [Example 165]
Return: 98

Enquiry: State its inhibition at 10 µM for this compound: O=C1c2ccnc(-c3ccc(F)cc3OCC(F)(F)F)c2CN1c1ccc(C2(O)CCOCC2)cn1 [Example 257]
Return: 99

Enquiry: State its inhibition at 10 µM for this compound: Cc1cccc(OCC(F)(F)F)c1-c1nccc2c1CN(c1ccc(S(=O)(=O)C(F)F)cc1)C2=O [Example 201]
Return: 99

Enquiry: State its inhibition at 10 µM for this compound: O=C1C2=C(CN1c1ccc(OCC(F)(F)F)cc1)C(c1ccc(F)cc1OCC(F)(F)F)=NCCN2 [Example 176]
Return: 100

Enquiry: State its inhibition at 10 µM for this compound: CC(C)(O)c1ccc(N2Cc3c(cn(C(F)F)c(=O)c3-c3ccccc3OCC(F)(F)F)C2=O)cc1 [Example 368]
Return: 100

Enquiry: State its inhibition at 10 µM for this compound: Cn1cc2c(c(-c3ccc(F)cc3OCC(F)(F)F)c1=O)CN(c1ccc(OC(F)F)cc1)C2=O [Example 196]
Return: 100

Enquiry: State its inhibition at 10 µM for this compound: O=C1c2ccnc(-c3ccc(F)cc3OCC(F)(F)F)c2CN1c1ccc(C(O)C(F)F)cc1 (racemic) [Example 250]
Return: 99
